# System: 186277-243-T-J2-PDC complex spheroid viability
# testMethodNotes: Anticancer human tumor 186277-243-T-J2-PDC patient-derived colon adenocarcinoma cell line growth inhibition [POLQ]
# protocolConditions: curve of first compound; second compound 1 µM
pIC50: −log10 of the molar value.
quantity: pIC50

| compound | measuredResult |
| --- | --- |
| CC(=O)O[C@H]1C(=O)[C@@]2(C)[C@H]([C@H](OC(=O)c3ccccc3)[C@]3(O)C[C@H](OC(=O)[C@H](O)[C@@H](NC(=O)c4ccccc4)c4ccccc4)C(C)=C1C3(C)C)[C@]1(OC(C)=O)CO[C@@H]1C[C@@H]2O + COC1C(OC(N)=O)C(O)C(Oc2ccc3c(O)c(NC(=O)c4ccc(O)c(CC=C(C)C)c4)c(=O)oc3c2C)OC1(C)C | > 8.02 |
| CNCc1ccc(-c2[nH]c3cc(F)cc4c3c2CCNC4=O)cc1 + Nc1ccc(C#CCN(C(=O)Cc2ncc(C(F)(F)F)cc2C(F)(F)F)c2ccc(F)cc2)nn1 | < 5.00 |
| Nc1ccn(C2OC(CO)C(O)C2(F)F)c(=O)n1 (centres undefined) + COC1C(OC(N)=O)C(O)C(Oc2ccc3c(O)c(NC(=O)c4ccc(O)c(CC=C(C)C)c4)c(=O)oc3c2C)OC1(C)C | > 7.50 |

// next item, pIC50 requested
Inquiry: Identify measured pIC50 obtained with 186277-243-T-J2-PDC complex spheroid viability for O=C(Nc1ccc(O)c(NS(=O)(=O)c2ccc(F)cc2)c1)c1ccc(-c2ccccc2)cc1 + COC1C(OC(N)=O)C(O)C(Oc2ccc3c(O)c(NC(=O)c4ccc(O)c(CC=C(C)C)c4)c(=O)oc3c2C)OC1(C)C .
Reply text: < 5.00

* * *

# System: 186277-243-T-J2-PDC complex spheroid viability
# testMethodNotes: Anticancer human tumor 186277-243-T-J2-PDC cell line growth inhibition [POLQ];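 note: spheroids exposed to compounds for seven days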
# protocolConditions: curve of first compound; second compound 1 µM
quantity: IC50

| compound | testedOn | measuredResult |
| --- | --- | --- |
| CC1COCCN1c1cc(-c2ccnn2C)c2ccnc(-c3ccn[nH]3)c2n1 (stereo not drawn) + Cc1cccc(N(C)C(=O)C2C(O)CCN2c2nc(C)cc(C(F)(F)F)c2C#N)c1 | 186277-243-T-J2-PDC complex spheroid viability | 48.9 nM |
| CC(=O)O[C@H]1C(=O)[C@@]2(C)[C@H]([C@H](OC(=O)c3ccccc3)[C@]3(O)C[C@H](OC(=O)[C@H](O)[C@@H](NC(=O)c4ccccc4)c4ccccc4)C(C)=C1C3(C)C)[C@]1(OC(C)=O)CO[C@@H]1C[C@@H]2O + Cc1cccc(N(C)C(=O)C2C(O)CCN2c2nc(C)cc(C(F)(F)F)c2C#N)c1 | 186277-243-T-J2-PDC complex spheroid viability | < 9.49 nM |

// next item, IC50 requested
Inquiry: Determine its reported IC50: CCc1cc2c(N3CCc4c(cc(Cn5ccnc5)cc4-c4cn(C)nc4C(F)(F)F)C3=O)ccnc2c(OC)n1 + COC1C(OC(N)=O)C(O)C(Oc2ccc3c(O)c(NC(=O)c4ccc(O)c(CC=C(C)C)c4)c(=O)oc3c2C)OC1(C)C
Reply text: > 10000 nM

* * *

For each of the compounds below, state its viability, T/C.
# Test system: 186277-243-T-J2-PDC complex spheroid viability
# testMethodNotes: Anticancer human tumor 186277-243-T-J2-PDC cell line growth inhibition [POLQ];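 note: spheroids exposed to compounds for seven days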;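 for viability, T/C: 100% = DMSO vehicle control viability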
# protocolConditions: second compound 3.16 µM; first compound 10 µM; stronger effect = lower value
Numbers only, in %.

Examples from the recorded data:
| compound | unitString | viability, T/C |
| --- | --- | --- |
| O=C(Nc1ccc(O)c(NS(=O)(=O)c2ccc(F)cc2)c1)c1ccc(-c2ccccc2)cc1 + Nc1ccc(C#CCN(C(=O)Cc2ncc(C(F)(F)F)cc2C(F)(F)F)c2ccc(F)cc2)nn1 | % | 95.9 |
| COc1cc(C2c3cc4c(cc3C(OC3OC5COC(C)OC5C(O)C3O)C3COC(=O)C23)OCO4)cc(OC)c1O (stereo not given) + Nc1ccc(C#CCN(C(=O)Cc2ncc(C(F)(F)F)cc2C(F)(F)F)c2ccc(F)cc2)nn1 | % | 24.4 |
| C=CC(=O)N1CCN(c2nc(=O)n(-c3c(C)ccnc3C(C)C)c3nc(-c4c(O)cccc4F)c(F)cc23)C(C)C1 (stereo not given) + Nc1ccc(C#CCN(C(=O)Cc2ncc(C(F)(F)F)cc2C(F)(F)F)c2ccc(F)cc2)nn1 | % | 101 |
| COc1cc(C2c3cc4c(cc3C(OC3OC5COC(C)OC5C(O)C3O)C3COC(=O)C23)OCO4)cc(OC)c1O (stereo not given) + COC1C(OC(N)=O)C(O)C(Oc2ccc3c(O)c(NC(=O)c4ccc(O)c(CC=C(C)C)c4)c(=O)oc3c2C)OC1(C)C | % | 11.3 |

// next item, viability, T/C requested
Inquiry: Determine its reported viability, T/C: C=CC(=O)N1CCN(c2nc(=O)n(-c3c(C)ccnc3C(C)C)c3nc(-c4c(O)cccc4F)c(F)cc23)C(C)C1 (stereo not given) + COC1C(OC(N)=O)C(O)C(Oc2ccc3c(O)c(NC(=O)c4ccc(O)c(CC=C(C)C)c4)c(=O)oc3c2C)OC1(C)C
Reply text: 87.3

* * *

# Test system: 186277-243-T-J2-PDC complex spheroid viability
# testMethodNotes: Anticancer human tumor 186277-243-T-J2-PDC cell line growth inhibition [POLQ];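 note: spheroids exposed to compounds for seven days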
# protocolConditions: curve of first compound; second compound 1 µM
quantity: IC50

Examples from the recorded data:
| compound | measuredResult |
| --- | --- |
| COc1cccc(OCCCN)c1-c1cc(Nc2cnc(C#N)cn2)n[nH]1 + COC1C(OC(N)=O)C(O)C(Oc2ccc3c(O)c(NC(=O)c4ccc(O)c(CC=C(C)C)c4)c(=O)oc3c2C)OC1(C)C | < 0.00316 µM |
| O=C(c1cc(Cc2n[nH]c(=O)c3ccccc23)ccc1F)N1CCN(C(=O)C2CC2)CC1 + Nc1ccc(C#CCN(C(=O)Cc2ncc(C(F)(F)F)cc2C(F)(F)F)c2ccc(F)cc2)nn1 | > 10 µM |
| Nc1ccn(C2OC(CO)C(O)C2(F)F)c(=O)n1 (stereo unspecified) + Cc1cccc(N(C)C(=O)C2C(O)CCN2c2nc(C)cc(C(F)(F)F)c2C#N)c1 | < 0.0316 µM |
| CCc1c2c(nc3ccc(O)cc13)-c1cc3c(c(=O)n1C2)COC(=O)[C@]3(O)CC + Cc1cccc(N(C)C(=O)C2C(O)CCN2c2nc(C)cc(C(F)(F)F)c2C#N)c1 | 0.0101 µM |
| COc1cc2cc(C(=O)CCC(=O)O)sc2cc1OC + Nc1ccc(C#CCN(C(=O)Cc2ncc(C(F)(F)F)cc2C(F)(F)F)c2ccc(F)cc2)nn1 | > 10 µM |
| C=CCn1c(=O)c2cnc(Nc3ccc(N4CCN(C)CC4)cc3)nc2n1-c1cccc(C(C)(C)O)n1 + Cc1cccc(N(C)C(=O)C2C(O)CCN2c2nc(C)cc(C(F)(F)F)c2C#N)c1 | 0.226 µM |
| Cn1ncnc1[C@H]1c2n[nH]c(=O)c3cc(F)cc(c23)N[C@@H]1c1ccc(F)cc1 + COC1C(OC(N)=O)C(O)C(Oc2ccc3c(O)c(NC(=O)c4ccc(O)c(CC=C(C)C)c4)c(=O)oc3c2C)OC1(C)C | > 0.1 µM |
| CCCS(=O)(=O)Nc1ccc(F)c(C(=O)c2c[nH]c3ncc(-c4ccc(Cl)cc4)cc23)c1F + Nc1ccc(C#CCN(C(=O)Cc2ncc(C(F)(F)F)cc2C(F)(F)F)c2ccc(F)cc2)nn1 | > 10 µM |
| O=C(c1cc(Cc2n[nH]c(=O)c3ccccc23)ccc1F)N1CCN(C(=O)C2CC2)CC1 + COC1C(OC(N)=O)C(O)C(Oc2ccc3c(O)c(NC(=O)c4ccc(O)c(CC=C(C)C)c4)c(=O)oc3c2C)OC1(C)C | > 10 µM |
| CCCS(=O)(=O)Nc1ccc(F)c(C(=O)c2c[nH]c3ncc(-c4ccc(Cl)cc4)cc23)c1F + COC1C(OC(N)=O)C(O)C(Oc2ccc3c(O)c(NC(=O)c4ccc(O)c(CC=C(C)C)c4)c(=O)oc3c2C)OC1(C)C | 7.81 µM |

// next item, IC50 requested
Inquiry: Determine its reported IC50: O=c1[nH]cc(F)c(=O)[nH]1 + COC1C(OC(N)=O)C(O)C(Oc2ccc3c(O)c(NC(=O)c4ccc(O)c(CC=C(C)C)c4)c(=O)oc3c2C)OC1(C)C
Reply text: 9.82 µM

* * *

# Tested on: 186277-243-T-J2-PDC complex spheroid viability
# testMethodNotes: Anticancer human tumor 186277-243-T-J2-PDC cell line growth inhibition [POLQ];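 note: spheroids exposed to compounds for seven days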
# protocolConditions: curve of first compound; second compound 0.1 µM
quantity: IC50

| compound | IC50 |
| --- | --- |
| CNCc1ccc(-c2[nH]c3cc(F)cc4c3c2CCNC4=O)cc1 + COC1C(OC(N)=O)C(O)C(Oc2ccc3c(O)c(NC(=O)c4ccc(O)c(CC=C(C)C)c4)c(=O)oc3c2C)OC1(C)C | > 10000 nM |

Return reported IC50 values for all items listed beneath this line.
1. CC(=O)O[C@H]1C(=O)[C@@]2(C)[C@H]([C@H](OC(=O)c3ccccc3)[C@]3(O)C[C@H](OC(=O)[C@H](O)[C@@H](NC(=O)c4ccccc4)c4ccccc4)C(C)=C1C3(C)C)[C@]1(OC(C)=O)CO[C@@H]1C[C@@H]2O + Cc1cccc(N(C)C(=O)C2C(O)CCN2c2nc(C)cc(C(F)(F)F)c2C#N)c1
2. O=C(c1cc(Cc2n[nH]c(=O)c3ccccc23)ccc1F)N1CCN(C(=O)C2CC2)CC1 + Nc1ccc(C#CCN(C(=O)Cc2ncc(C(F)(F)F)cc2C(F)(F)F)c2ccc(F)cc2)nn1

Reply text:
1: < 9.49 nM; 2: > 10000 nM

Return reported IC50 values for all items listed beneath this line.
1. Nc1ccn(C2OC(CO)C(O)C2(F)F)c(=O)n1 (stereo not given) + Nc1ccc(C#CCN(C(=O)Cc2ncc(C(F)(F)F)cc2C(F)(F)F)c2ccc(F)cc2)nn1
2. CC1COCCN1c1cc(C2(S(C)(=N)=O)CC2)nc(-c2ccnc3[nH]ccc23)n1 (stereo not given) + Cc1cccc(N(C)C(=O)C2C(O)CCN2c2nc(C)cc(C(F)(F)F)c2C#N)c1

Reply text:
["< 31.6 nM", "800 nM"]

Origin of the recorded values: PubChem BioAssay AID1963854
